tested on: Candida parapsilosis; test: Minimal inhibitory effect against the Candida parapsilosis (2372E).; assay type: functional; details: Lodderomyces parapsilosis
Reported MIC values are given for each entry in this list.
The answer is to be given in µg/mL; state only the numeric part.

Some solved cases for reference:
{"Molecule": "CC(C)C1=CC2CC3(C=O)[C@@H]4CC[C@@H](C)[C@H]4CC2(CO[C@H]2C[C@H]4[C@H](OC[C@@H]4C)[C@@H](C)O2)C13C(=O)O (some centres undefined)", "MIC (µg/mL)": 2}
{"Molecule": "CC(C)C1=CC2CC3(C=O)[C@@H]4CC[C@@H](C)[C@H]4CC2(CO[C@@H]2O[C@H](C)[C@H]4OC[C@@H](C)C4[C@@H]2O)C13C(=O)O (single isomer, unassigned)", "MIC (µg/mL)": 125}

The record that follows has no MIC shown yet.
Entry under test: CC[C@@H]1CO[C@H]2C1[C@H](O)[C@H](OCC13C[C@@H]4[C@H](C)CC[C@H]4C4(C=O)CC1C=C(C(C)C)C34C(=O)O)O[C@@H]2C (single isomer, unassigned) . Its MIC was 125

----------
The following compounds are listed with their measured MIC values.
tested on: Kluyveromyces marxianus; experiment: Minimal inhibitory effect against the Candida pseudotropicalis (2371E).; assay type: functional
Numbers only here, please. The scale is µg/mL.

{"Compound": "CC[C@H]1CO[C@H]2C1[C@H](O)[C@H](OCC13C[C@@H]4[C@H](C)CC[C@H]4C4(C=O)CC1C=C(C(C)C)C34C(=O)O)O[C@@H]2C (single isomer, unassigned)", "Tested Target": "Kluyveromyces marxianus", "MIC [µg/mL]": 0.06}
{"Compound": "CC(C)C1=CC2CC3(C=O)[C@@H]4CC[C@@H](C)[C@H]4CC2(CO[C@@H]2O[C@H](C)[C@H]4OC[C@@H](C)C4[C@@H]2O)C13C(=O)O (single isomer, unassigned)", "Tested Target": "Kluyveromyces marxianus", "MIC [µg/mL]": 0.25}
{"Compound": "CC(C)C1=CC2CC3(C=O)[C@@H]4CC[C@@H](C)[C@H]4CC2(CO[C@@H]2O[C@H](C)[C@H]4OC[C@H](C)C4[C@@H]2O)C13C(=O)O (single isomer, unassigned)", "Tested Target": "Kluyveromyces marxianus", "MIC [µg/mL]": 1}

Moving on to the next compound.
Kluyveromyces marxianus data for CC(C)C1=CC2CC3(C=O)[C@@H]4CC[C@@H](C)[C@H]4CC2(CO[C@H]2C[C@H]4[C@H](OC[C@@H]4C)[C@@H](C)O2)C13C(=O)O (some centres not stated) ; its MIC: 0.004

----------
system: Kluyveromyces marxianus; assay: Minimal inhibitory effect against the Candida pseudotropicalis (2371E).; assay type: functional
Measurement Label: MIC

Below, each entry is followed by its recorded MIC result.
{"Compound": "CC(C)C1=CC2CC3(C=O)[C@@H]4CC[C@@H](C)[C@H]4CC2(CO[C@H]2C[C@@H]4OC[C@H](C)[C@@H]4[C@@H](C)O2)C13C(=O)O (stereo partly drawn)", "MIC": "< 1 ng/mL"}
{"Compound": "CC[C@@H]1CO[C@H]2[C@@H]1C[C@H](OCC13C[C@@H]4[C@H](C)CC[C@H]4C4(C=O)CC1C=C(C(C)C)C34C(=O)O)O[C@@H]2C (stereo partly drawn)", "MIC": "< 1 ng/mL"}

We now examine a further compound.
Please fill in: MIC reported for CC(C)C1=CC2CC3(C=O)[C@@H]4CC[C@@H](C)[C@H]4CC2(CO[C@H]2C[C@H]4[C@H](OC[C@H]4C(C)C)[C@@H](C)O2)C13C(=O)O (stereo partly drawn) = < 1 ng/mL

Origin of the recorded values: ChEMBL document CHEMBL1136023
